These entries and their values trace back to the supplement of paper PMC12645437.

- Subject Of Test: T1, CRBN, Q96SW2
- T1 chain: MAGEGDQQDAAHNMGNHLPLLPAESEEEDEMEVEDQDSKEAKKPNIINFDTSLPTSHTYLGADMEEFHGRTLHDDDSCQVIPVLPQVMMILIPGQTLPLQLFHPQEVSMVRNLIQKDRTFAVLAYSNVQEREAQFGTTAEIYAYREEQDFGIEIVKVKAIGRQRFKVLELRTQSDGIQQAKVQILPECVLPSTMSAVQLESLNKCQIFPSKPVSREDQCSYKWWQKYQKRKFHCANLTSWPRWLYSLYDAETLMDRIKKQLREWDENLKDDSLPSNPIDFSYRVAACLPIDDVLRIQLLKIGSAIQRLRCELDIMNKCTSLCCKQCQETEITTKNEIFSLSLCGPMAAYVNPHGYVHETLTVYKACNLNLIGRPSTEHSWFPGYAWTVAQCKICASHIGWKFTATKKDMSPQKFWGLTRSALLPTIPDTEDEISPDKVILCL
- Test Summary: log2 fold change of degron read counts, EGFP-low vs EGFP+ sorted cells (limma voom), compound-induced degradation; higher = more compound-induced degradation of the degron-EGFP fusion; degrons are variants of IKZF1/3 zinc finger 2; compound dose not given here;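 also: pooled lentiviral library of zinc finger degron-EGFP fusions in mCherry-positive Jurkat cells, FACS-sorted after compound exposure, with degron abundance counted by next-generation sequencing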
- Condition Description: Jurkat; 18 h; compound: thalidomide
Over roughly 8,300 sequences, “log2 fold change of degron read counts, EGFP-low vs EGFP+ sorted cells (limma voom), compound-induced degradation” has its median near -1.1; the highest 2% begin near 3.2. The entries come from a sample that favours the highest values as a whole.
Measured log2 fold change of degron read counts of individual entries

# Input Sequence, log2 fold change of degron read counts
data = [
    ("FCCPICGAHFTQKGNLLRHIKL [46F_47C_49P_50I_52G_53A_54H_55F_67L_, Q9UKT9]", 1.24),
    ("FACPICGAHFTQKGNLLRHIKL [46F_47A_49P_50I_52G_53A_54H_55F_67L_, Q9UKT9]", 0.563),
    ("FKCEICGHFFTQKGNLLRHIKL [46F_47K_49E_50I_52G_53H_54F_55F_67L_, Q9UKT9]", -2.85),
    ("FCCPICGAMFTQKGNLLRHIKL [46F_47C_49P_50I_52G_53A_54M_55F_67L_, Q9UKT9]", 1.23),
    ("FFCPICGAHFTQKGNLLRHIKL [46F_47F_49P_50I_52G_53A_54H_55F_67L_, Q9UKT9]", 0.615),
    ("FHCEICGRHFTQKGNLLRHIKL [46F_47H_49E_50I_52G_53R_54H_55F_67L_, Q9UKT9]", -1.95),
    ("FWCPICGAHFTQKGNLLRHIKL [46F_47W_49P_50I_52G_53A_54H_55F_67L_, Q9UKT9]", 0.881),
]
